Consider the following molecules and their measured MIC readings.
# Tested on: Streptococcus agalactiae
# Assay Info: Minimum inhibitory activity against Streptococcus agalactiae CMX 508
# Assay type: functional
# output: bare number, implied unit µg/mL

// worked examples, MIC included
MIC for CC[C@H]1OC(=O)[C@H](C)[C@@H](OC2C[C@@](C)(OC)[C@@H](O)[C@H](C)O2)[C@H](C)[C@@H](OC2O[C@H](C)C[C@H](N(CC3CC3)CC3CC3)[C@H]2O)[C@@](C)(OC)C[C@@H](C)C(=O)[C@H](C)[C@H]2N(CCc3ccc(F)c(Cl)c3)C(=O)O[C@]12C (some centres undefined) ?
50

Repeat for the following molecule: CC[C@H]1OC(=O)[C@H](C)[C@@H](OC2C[C@@](C)(OC)[C@@H](O)[C@H](C)O2)[C@H](C)[C@@H](OC2O[C@H](C)C[C@H](N(C)CC3CC3)[C@H]2O)[C@@](C)(OC)C[C@@H](C)C(=O)[C@H](C)[C@H]2N(CCc3ccc(Cl)cc3)C(=O)O[C@]12C (some centres undefined)
1.56

One more molecule: CC[C@H]1OC(=O)[C@H](C)[C@@H](OC2C[C@@](C)(OC)[C@@H](O)[C@H](C)O2)[C@H](C)[C@@H](OC2O[C@H](C)C[C@H](NC)[C@H]2O)[C@@](C)(OC)C[C@@H](C)C(=O)[C@H](C)[C@H]2N(CCc3ccc(Cl)cc3)C(=O)O[C@]12C (some centres undefined)
0.05

Others:
// MIC lookup, key: CC[C@H]1OC(=O)[C@H](C)[C@@H](OC2C[C@@](C)(OC)[C@@H](O)[C@H](C)O2)[C@H](C)[C@@H](OC2O[C@H](C)C[C@H](N(C)C3CCCCC3)[C@H]2O)[C@@](C)(OC)C[C@@H](C)C(=O)[C@H](C)[C@H]2N(CCc3ccc(Cl)cc3)C(=O)O[C@]12C (some centres undefined)
12.5

Let us now turn to CC[C@H]1OC(=O)[C@H](C)[C@@H](OC2C[C@@](C)(OC)[C@@H](O)[C@H](C)O2)[C@H](C)[C@@H](OC2O[C@H](C)C[C@H](N(C)C3CCCC3)[C@H]2O)[C@@](C)(OC)C[C@@H](C)C(=O)[C@H](C)[C@H]2N(CCc3ccc(Cl)c(Cl)c3)C(=O)O[C@]12C (some centres undefined)
3.1

Also need CC[C@H]1OC(=O)[C@H](C)[C@@H](OC(=O)N2C(=O)OC[C@@H]2C)[C@H](C)[C@@H](OC2O[C@H](C)C[C@H](N(C)CC3CC3)[C@H]2O)[C@@](C)(OC)C[C@@H](C)C(=O)[C@H](C)[C@H]2N(CCc3ccc(F)c(Cl)c3)C(=O)O[C@]12C (some centres undefined) , thanks.
0.39

// same read-out, input: CC[C@H]1OC(=O)[C@H](C)[C@@H](OC2C[C@@](C)(OC)[C@@H](O)[C@H](C)O2)[C@H](C)[C@@H](OC2O[C@H](C)C[C@H](N(C)C3CCCC3)[C@H]2O)[C@@](C)(OC)C[C@@H](C)C(=O)[C@H](C)[C@H]2N(CCc3ccc(Cl)cc3)C(=O)O[C@]12C (some centres undefined)
0.78

Another molecule to look at: CC[C@H]1OC(=O)[C@H](C)[C@@H](OC2C[C@@](C)(OC)[C@@H](O)[C@H](C)O2)[C@H](C)[C@@H](OC2O[C@H](C)C[C@H](N(C)C)[C@H]2O)[C@@](C)(OC)C[C@@H](C)C(=O)[C@H](C)[C@H]2N(CCc3ccc(Cl)cc3)C(=O)O[C@]12C (some centres undefined)
0.2

The measurements presented in this section are drawn from ChEMBL document CHEMBL1147642.
